experiment: half-life when delivered sublingually or transmucosally; details: in vivo
observable: half-life

Request the reported half-life associated with O=c1cc(-c2ccccc2)oc2c1ccc1ccccc12 [7,8-benzoflavone, 2-phenyl-benzo(h)chromen-4-one]
1 to 2 h

Request the reported half-life associated with COc1ccc2c(=O)cc(-c3ccccc3)oc2c1 [7-methoxyflavone]
8 to 12 h
